- Test system: HLA-A*11:01-restricted antigen-specific CD8+ T cells in patient's PBMC
- PROTOCOL_NOTES: Highly multiplexed combinatorial pMHC tetramer staining with mass cytometry (epitope mapping, frequency of antigen-specific CD8+ T cells)
- MEASUREMENT_CONDITIONS: Immune Active (IA) CHB patients; patients with detected tetramer+ CD8+ T cells (frequency > 0.002%) / patients in the group; per epitope cluster
Field: Hits (Freq > 0.002%) IA. Provide a value for each of the sequences that follow.

Worked examples, 3 sequences total:
{"ORDERED_RESIDUES": "STFHQALLDPR", "PROPERTY_MEASURED": "Hits (Freq > 0.002%) IA", "RECORDED_RESULT": "1/12"}
{"ORDERED_RESIDUES": "TTSTGPCK", "PROPERTY_MEASURED": "Hits (Freq > 0.002%) IA", "RECORDED_RESULT": "1/12"}
{"ORDERED_RESIDUES": "LSYLHFRK", "PROPERTY_MEASURED": "Hits (Freq > 0.002%) IA", "RECORDED_RESULT": "4/12"}

For every item below, please supply its Hits (Freq > 0.002%) IA.
1. NLNVSIPWTHK
2. VSAISSILSK
3. LTINENRRLK
4. TVNHYFQTR
5. STNRQSGRK
6. GILPRSSVGPR
7. TVSAISSILSK
8. STISSILSK

Result:
1. 8/12
2. 1/12
3. 1/12
4. 4/12
5. 7/12
6. 1/12
7. 2/12
8. 1/12

----------
Field: Hits (Freq > 0.002%) InA. Provide a value for each of the sequences that follow.
- Test system: HLA-A*11:01-restricted antigen-specific CD8+ T cells in patient's PBMC
- PROTOCOL_NOTES: Highly multiplexed combinatorial pMHC tetramer staining with mass cytometry (epitope mapping, frequency of antigen-specific CD8+ T cells)
- MEASUREMENT_CONDITIONS: Inactive Carrier (InA) CHB patients; patients with detected tetramer+ CD8+ T cells (frequency > 0.002%) / patients in the group; per epitope cluster

{"ORDERED_RESIDUES": "SSCLHQPAVRK", "RECORDED_RESULT": "1/12"}
{"ORDERED_RESIDUES": "AGFFLLTK", "RECORDED_RESULT": "1/13"}

For every item below, please supply its Hits (Freq > 0.002%) InA.
1. HTLWKAGILYK
2. QTSERHGDK
3. TVNETRRLK

Result:
1. 1/13
2. 1/13
3. 2/13

----------
- Tested on: HLA-A*11:01-restricted antigen-specific CD8+ T cells in patient's PBMC
- PROTOCOL_NOTES: Highly multiplexed combinatorial pMHC tetramer staining with mass cytometry (epitope mapping, frequency of antigen-specific CD8+ T cells)
- MEASUREMENT_CONDITIONS: Inactive Carrier (InA) CHB patients; patients with detected tetramer+ CD8+ T cells (frequency > 0.002%) / patients in the group; per epitope cluster
Field: Hits (Freq > 0.002%) InA. Provide a value for each of the sequences that follow.

{"ORDERED_RESIDUES": "GILPRSSVGPR", "STUDY_TARGET": "HLA-A*11:01-restricted antigen-specific CD8+ T cells in patient's PBMC", "Hits (Freq > 0.002%) InA": "3/13"}

For every item below, please supply its Hits (Freq > 0.002%) InA.
1. TVPCFNPK
2. NLNVSIPWTHK
3. STISSILSK
4. TSMFPSCCCTK

Result:
1: 1/13; 2: 3/13; 3: 1/13; 4: 1/13

----------
- System: HLA-A*11:01-restricted antigen-specific CD8+ T cells in patient's PBMC
- PROTOCOL_NOTES: Highly multiplexed combinatorial pMHC tetramer staining with mass cytometry (epitope mapping, frequency of antigen-specific CD8+ T cells)
- MEASUREMENT_CONDITIONS: Immune Tolerant (IT) CHB patients; patients with detected tetramer+ CD8+ T cells (frequency > 0.002%) / patients in the group; per epitope cluster
PROPERTY_MEASURED: Hits (Freq > 0.002%) IT

{"ORDERED_RESIDUES": "LSYLHFRK", "RECORDED_RESULT": "3/8"}
{"ORDERED_RESIDUES": "KTAYSHLSTSK", "RECORDED_RESULT": "8/8"}
{"ORDERED_RESIDUES": "GSCIQSQLRK", "RECORDED_RESULT": "1/8"}

For every item below, please supply its Hits (Freq > 0.002%) IT.
1. TVSAISSILSK
2. TSMFPSCCCTK
3. NLNVSIPWTHK
4. VTKYLPLDK
5. STNRQSGRK
6. HTLWKAGILYK
7. TVNHYFQTR
8. PSFPHIHLK

Result:
1: 1/8; 2: 1/8; 3: 4/8; 4: 1/8; 5: 5/8; 6: 1/8; 7: 5/8; 8: 1/8

Problem: Please give the measured Hits (Freq > 0.002%) IT for this sequence: `TVNETRRLK`
Result: 1/8

----------
- System: HLA-A*11:01-restricted antigen-specific CD8+ T cells in patient's PBMC
- PROTOCOL_NOTES: Highly multiplexed combinatorial pMHC tetramer staining with mass cytometry (epitope mapping, frequency of antigen-specific CD8+ T cells)
- MEASUREMENT_CONDITIONS: Immune Active (IA) CHB patients; patients with detected tetramer+ CD8+ T cells (frequency > 0.002%) / patients in the group; per epitope cluster
PROPERTY_MEASURED: Hits (Freq > 0.002%) IA

Worked examples, 3 sequences total:
{"ORDERED_RESIDUES": "TVNETRRLK", "RECORDED_RESULT": "2/12"}
{"ORDERED_RESIDUES": "TSMFPSCCCTK", "RECORDED_RESULT": "2/12"}
{"ORDERED_RESIDUES": "LQAGFFLLTK", "RECORDED_RESULT": "1/12"}

Please turn your attention to the following entry.
Problem: Please give the measured Hits (Freq > 0.002%) IA for this sequence: `HTLWKAGILYK`
Result: 4/12

----------
- Test system: HLA-A*11:01-restricted antigen-specific CD8+ T cells in patient's PBMC
- PROTOCOL_NOTES: Highly multiplexed combinatorial pMHC tetramer staining with mass cytometry (epitope mapping, frequency of antigen-specific CD8+ T cells)
- MEASUREMENT_CONDITIONS: Inactive Carrier (InA) patients; donors with tetramer+ CD8+ T cell frequency > 0.002% / donors tested
Field: Hits (Freq > 0.002%) InA. Provide a value for each of the sequences that follow.

{"ORDERED_RESIDUES": "RGNTRVSWPK", "Hits (Freq > 0.002%) InA": "1/13"}
{"ORDERED_RESIDUES": "AVVRRRCRSPR", "Hits (Freq > 0.002%) InA": "2/13"}
{"ORDERED_RESIDUES": "PTYKAFLSK", "Hits (Freq > 0.002%) InA": "2/13"}
{"ORDERED_RESIDUES": "LSLGIHLNPNK", "Hits (Freq > 0.002%) InA": "1/13"}
{"ORDERED_RESIDUES": "LLYKTFGRK", "Hits (Freq > 0.002%) InA": "5/13"}

For every item below, please supply its Hits (Freq > 0.002%) InA.
1. YVSLLLLYK
2. LVVDFSQFSR
3. MLLYKTYGRK
4. LVYRPTTGR

Result:
["3/13", "9/13", "1/13", "1/13"]

For every item below, please supply its Hits (Freq > 0.002%) InA.
1. SSARSQSER
2. SVVRRAFPH
3. STLPETAVVRR
4. SSAGPCALR

Result:
["1/13", "2/13", "7/13", "2/13"]

----------
- System: HLA-A*11:01-restricted antigen-specific CD8+ T cells in patient's PBMC
- PROTOCOL_NOTES: Highly multiplexed combinatorial pMHC tetramer staining with mass cytometry (epitope mapping, frequency of antigen-specific CD8+ T cells)
- MEASUREMENT_CONDITIONS: patients with detected epitope-specific CD8+ T cells / patients tested; acute resolved (R) group; Freq > 0.002%
PROPERTY_MEASURED: Hits (Freq > 0.002%) R

{"ORDERED_RESIDUES": "MSMTDLEAYFK", "STUDY_TARGET": "HLA-A*11:01-restricted antigen-specific CD8+ T cells in patient's PBMC", "Hits (Freq > 0.002%) R": "1/12"}
{"ORDERED_RESIDUES": "KVFVLGGCRHK", "STUDY_TARGET": "HLA-A*11:01-restricted antigen-specific CD8+ T cells in patient's PBMC", "Hits (Freq > 0.002%) R": "2/12"}
{"ORDERED_RESIDUES": "TVRAFSRAYHHRINR", "STUDY_TARGET": "HLA-A*11:01-restricted antigen-specific CD8+ T cells in patient's PBMC", "Hits (Freq > 0.002%) R": "1/12"}

For every item below, please supply its Hits (Freq > 0.002%) R.
1. SSCSSCPLSK
2. SFSFGGFTFK
3. YVNVNMGLK
4. RSQSPRRRRSK

Result:
8/12
1/12
1/12
6/12
